Overview of recorded pIC50 for various compounds
molecular target: Human thrombin (Homo sapiens, UniProt P00734)
pIC50: −log10 of the molar value. Counter-ions that a name gives are not always drawn.

Reference set, count: 3
CC(C)(C)OC(=O)N1CCCC1(C)c1cc(NCc2ccc(Cl)s2)n(C(=O)c2ccsc2)n1 (stereo not drawn) : < 4.00
Clc1ccc(CNc2cc(C3CCCNC3)n[nH]2)s1 (stereo not drawn) : 5.00 to 6.00
C=CCOC(=O)N1CCN(C(=O)N2CCOCC2)CC1c1cc(NCc2ccc(Cl)s2)n(C(=O)C(C)(C)C)n1 (stereo not drawn) : 5.00 to 6.00

Would you kindly share the measured pIC50 for COc1ccccc1C(=O)n1nc(C2CCCN(C(=O)OC(C)(C)C)C2)cc1NCc1ccc(Cl)s1 (stereo not drawn) ?
> 7.00

Thanks! And CC1(C(=O)n2nc(C3CCN(C(=O)N4CCOCC4)CC3)cc2NCc2ccc(Cl)s2)CCC(O)CC1 (stereo not drawn) ?
> 7.00

Thanks! And COc1ccccc1C(=O)n1nc(C2CNC2)cc1NCc1ccc(Cl)s1 [Entry 127, hydrochloride] ?
4.00 to 5.00

Thanks! And COCC(C)(C)C(=O)n1nc(C2(C)CCCNC2=O)cc1NCc1ccc(Cl)s1 (stereo not drawn) ?
5.00 to 6.00

Thanks! And Clc1ccc(CNc2cc(C3CCN(Cc4ccccc4)CC3)n[nH]2)s1 ?
< 4.00

Thanks! And C=CCOC(=O)N1CCC(c2cc(NCc3ccc(Cl)s3)[nH]n2)C1 (stereo not drawn) ?
< 4.00

---

Quick record: IC50, Human thrombin (Homo sapiens).
Counter-ions that a name gives are not always drawn.

Reference set, count: 5
CC(C)(C)OC(=O)N1CCCC(c2cc(NCc3ccc(Cl)s3)n(C(=O)c3ccsc3)n2)C1 (stereo not shown) : < 100 nM
CC(C)(C)OC(=O)N1CCC(C)(c2cc(NCc3ccc(Cl)s3)n(C(=O)C(C)(C)C)n2)CC1 : < 100 nM
CC(C)(CO)C(=O)n1nc(C2(C)CCCNC2=O)cc1NCc1ccc(Cl)s1 (stereo not shown) : 100 to 1000 nM
C=CCOC(=O)N1CCCC(c2cc(NCc3ccc(Cl)s3)[nH]n2)CC1 (stereo not shown) : > 100000 nM
CC(=O)N1CCC(c2cc(NCc3ccc(Cl)s3)n(C(=O)c3ccsc3)n2)CC1 : 100 to 1000 nM

Would you kindly share the measured IC50 for CC1(C(=O)n2nc(C3CCOCC3)c(F)c2NCc2ccc(Cl)s2)CCOCC1 ?
< 100 nM

Thanks! And C=CCOC(=O)N1CCCC1c1cc(NCc2ccc(Cl)s2)[nH]n1 (stereo not shown) ?
> 100000 nM

Thanks! And O=C(c1ccccc1)n1nc(C2CCNCC2)cc1NCc1ccc(Cl)s1 [Entry 105, hydrochloride] ?
100 to 1000 nM

Thanks! And O=C(N1CCOCC1)N1CCNC(c2cc(NCc3ccc(Cl)s3)[nH]n2)C1 (stereo not shown) [Entry 212, hydrochloride] ?
> 100000 nM

Thanks! And O=C(c1ccoc1)n1nc(C2CNC2)cc1NCc1ccc(Cl)s1 ?
1000 to 10000 nM
